Values were extracted from patent US20210388087A1.

I'd appreciate it if you could supply fold change of affinity values for the items below.
- target.entity: T1, Human CD137 ECD (human)
- T1 construct: entry includes C-terminal His-tag and biotin acceptor peptide; also called human CD137 extracellular domain; 4-1BB
- procedure.details: Biacore SPR, vs parent H183/L072
One number for each entry, in fold.

[
  {
    "binder": "H183/L072 VL N28A (antibody, name in Kabat numbering, V domains shown, Dual-Ig) VH: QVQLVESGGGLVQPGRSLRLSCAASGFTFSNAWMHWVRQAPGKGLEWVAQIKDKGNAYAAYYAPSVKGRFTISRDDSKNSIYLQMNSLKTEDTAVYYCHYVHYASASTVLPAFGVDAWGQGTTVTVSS VL: DIVMTQSPLSLPVTPGEPASISCQASQELVHMARNTYLHWYQQKPGQAPRLLIYKVSNRFPGVPDRFSGSGSGTDFTLKISRVEAEDVGVYYCAQGTSVPFTFGQGTKLEIK",
    "value.unit": "fold",
    "fold change of affinity": 0.4
  },
  {
    "binder": "H183/L072 VL P56N (antibody, name in Kabat numbering, V domains shown, Dual-Ig) VH: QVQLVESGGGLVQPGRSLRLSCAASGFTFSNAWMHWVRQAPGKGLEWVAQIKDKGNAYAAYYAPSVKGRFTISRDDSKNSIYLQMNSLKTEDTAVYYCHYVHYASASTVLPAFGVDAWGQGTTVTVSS VL: DIVMTQSPLSLPVTPGEPASISCQASQELVHMNRNTYLHWYQQKPGQAPRLLIYKVSNRFNGVPDRFSGSGSGTDFTLKISRVEAEDVGVYYCAQGTSVPFTFGQGTKLEIK",
    "value.unit": "fold",
    "fold change of affinity": 0.2
  },
  {
    "binder": "H183/L072 VL H27dR (antibody, name in Kabat numbering, V domains shown, Dual-Ig) VH: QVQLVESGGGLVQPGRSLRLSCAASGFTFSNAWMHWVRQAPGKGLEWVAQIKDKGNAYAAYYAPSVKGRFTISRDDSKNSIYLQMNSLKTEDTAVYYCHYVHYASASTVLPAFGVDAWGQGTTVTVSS VL: DIVMTQSPLSLPVTPGEPASISCQASQELVRMNRNTYLHWYQQKPGQAPRLLIYKVSNRFPGVPDRFSGSGSGTDFTLKISRVEAEDVGVYYCAQGTSVPFTFGQGTKLEIK",
    "value.unit": "fold",
    "fold change of affinity": 0.6
  },
  {
    "binder": "H183/L072 VL F55S (antibody, name in Kabat numbering, V domains shown, Dual-Ig) VH: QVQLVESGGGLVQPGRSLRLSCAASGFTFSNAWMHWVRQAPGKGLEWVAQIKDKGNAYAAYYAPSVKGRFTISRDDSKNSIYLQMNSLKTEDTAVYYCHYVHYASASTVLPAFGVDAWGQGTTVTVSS VL: DIVMTQSPLSLPVTPGEPASISCQASQELVHMNRNTYLHWYQQKPGQAPRLLIYKVSNRSPGVPDRFSGSGSGTDFTLKISRVEAEDVGVYYCAQGTSVPFTFGQGTKLEIK",
    "value.unit": "fold",
    "fold change of affinity": 0
  }
]

Item H183/L072 VL T97H (antibody, name in Kabat numbering, V domains shown, Dual-Ig) VH: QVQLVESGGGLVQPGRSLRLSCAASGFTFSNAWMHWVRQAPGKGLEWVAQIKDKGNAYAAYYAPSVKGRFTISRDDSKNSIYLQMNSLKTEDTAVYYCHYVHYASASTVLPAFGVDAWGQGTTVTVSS VL: DIVMTQSPLSLPVTPGEPASISCQASQELVHMNRNTYLHWYQQKPGQAPRLLIYKVSNRFPGVPDRFSGSGSGTDFTLKISRVEAEDVGVYYCAQGTSVPFHFGQGTKLEIK has what recorded fold change of affinity?
0.6
